The measurements presented in this section are drawn from patent US9617251B2.

# assayMethodText: Aqueous solubility in buffer vs acetonitrile/water (1/1), LC-UV
# Assay type: physicochemical
# experimentalParameters: kinetic from dmso stock, buffer pH 2.2, 24 h shaking, 2.5% DMSO
solubility at 24 h below 90 µg/mL gives Condition not met; solubility at 24 h at or above it gives Condition met.

Does the compound Cc1cc(OCCC(C)(C)O)cc(C)c1-c1cccc2c1CC[C@H]2Nc1ccc([C@H]2C[C@@H]2C(=O)O)cn1 have recorded solubility at 24 h that is 90 µg/mL or more?
Condition not met

Does the compound Cc1cc(-c2ccn(C)c(=O)c2)cc(C)c1-c1ccc(F)c2c1CC[C@H]2Nc1ccc([C@H]2C[C@@H]2C(=O)O)cn1 have recorded solubility at 24 h that is 90 µg/mL or more?
Condition met

Does the compound O=C(O)[C@H]1C[C@@H]1c1ccc(N[C@@H]2CCc3c(-c4ccccc4C(F)(F)F)ccc(F)c32)nc1 have recorded solubility at 24 h that is 90 µg/mL or more?
Condition not met

Does the compound O=C(O)[C@H]1C[C@@H]1c1ccc(N[C@@H]2CCc3c(-c4c(Cl)cccc4Cl)ccc(F)c32)nc1 have recorded solubility at 24 h that is 90 µg/mL or more?
Condition not met

Does the compound Cc1cc(-c2nnn[nH]2)cc(C)c1-c1ccc(F)c2c1CC[C@H]2Nc1ccc([C@H]2C[C@@H]2C(=O)O)cn1 have recorded solubility at 24 h that is 90 µg/mL or more?
Condition not met

Does the compound CCc1cccc(CC)c1-c1ccc(F)c2c1CC[C@H]2Nc1ccc([C@H]2C[C@@H]2C(=O)O)cn1 have recorded solubility at 24 h that is 90 µg/mL or more?
Condition not met

Does the compound Cc1cc(-c2cc(=O)n(C)cn2)cc(C)c1-c1ccc(F)c2c1CC[C@H]2Nc1ccc([C@H]2C[C@@H]2C(=O)O)cn1 have recorded solubility at 24 h that is 90 µg/mL or more?
Condition not met

Does the compound Cc1cc(-c2nnn(C)n2)cc(C)c1-c1cccc2c1CC[C@H]2Nc1ccc([C@H]2C[C@@H]2C(=O)O)cn1 have recorded solubility at 24 h that is 90 µg/mL or more?
Condition not met

Does the compound Cc1cc(OCC2(C)COC2)cc(C)c1-c1ccc(F)c2c1CC[C@H]2Nc1ccc([C@H]2C[C@@H]2C(=O)O)cn1 have recorded solubility at 24 h that is 90 µg/mL or more?
Condition met

Does the compound CNC(=O)c1cc(C)c(-c2ccc(F)c3c2CC[C@H]3Nc2ccc([C@H]3C[C@@H]3C(=O)O)cn2)c(C)c1 have recorded solubility at 24 h that is 90 µg/mL or more?
Condition met

Does the compound COc1cc(F)c(-c2ccc(F)c3c2CC[C@H]3Nc2ccc([C@H]3C[C@@H]3C(=O)O)cn2)c(F)c1 have recorded solubility at 24 h that is 90 µg/mL or more?
Condition not met

Does the compound Cc1cc(OCc2ccccc2)cc(C)c1-c1ccc(F)c2c1CC[C@H]2Nc1ccc([C@H]2C[C@@H]2C(=O)O)cn1 have recorded solubility at 24 h that is 90 µg/mL or more?
Condition not met

Does the compound Cc1nc(-c2cc(C)c(-c3ccc(F)c4c3CC[C@H]4Nc3ccc([C@H]4C[C@@H]4C(=O)O)cn3)c(C)c2)no1 have recorded solubility at 24 h that is 90 µg/mL or more?
Condition not met
